System: Escherichia coli
assay.procedure: Antibacterial activity against Escherichia coli HO141 assessed as growth inhibition
Assay type: functional, organism-based
pIC50: −log10 of the molar value.
# pIC50 per record follows

Before answering, review these 5 worked examples.
{"columns": ["compound", "pIC50"],
 "data": [
  ["C\\C=C(/C=C(C)/C=C/C=C/C=C(\\C)C(O)[C@]12O[C@H]1[C@@](O)(CCO)NC2=O)C(=O)OC (stereo partly specified)", "< 4.15"],
  ["C\\C=C(/C=C(C)/C=C/C=C/C=C(\\C)C(=O)C1C[C@@](O)(CCO)NC1=O)C(=O)OC (stereo partly specified)", "< 4.15"],
  ["C\\C=C(/C=C(C)/C=C/C=C/C=C(\\C)C(=O)[C@H]1C(=O)N[C@]2(O)CCO[C@H]12)C(=O)O", "< 4.15"],
  ["C\\C=C(/C=C(C)/C=C/C=C/C=C(\\C)C(=O)[C@H]1C(=O)N[C@]2(O)CCO[C@H]12)C(=O)OC", "< 4.15"],
  ["O=C(N[C@H](CO)[C@H](O)c1ccc([N+](=O)[O-])cc1)C(Cl)Cl", 5.34]
]}

Input line: Please tell me: pIC50 of C\C=C(/C=C(C)/C=C/C=C/C=C(\C)C(=O)[C@]12O[C@H]1[C@@](O)(CCO)NC2=O)C(=O)OC , system Escherichia coli?
Output line: < 4.15

====

Below is a list of entries, each paired with its recorded pIC50 value.
System: Aspergillus fumigatus
assay.procedure: Antifungal activity against Aspergillus fumigatus Af293 assessed as growth inhibition
Assay type: functional, organism-based
pIC50: −log10 of the molar value.

{"columns": ["molecule", "target.of.assay", "pIC50"],
 "data": [
  ["C\\C=C(/C=C(C)/C=C/C=C/C=C(\\C)C(=O)[C@H]1C(=O)N[C@]2(O)CCO[C@H]12)C(=O)O", "Aspergillus fumigatus", "< 4.15"],
  ["C\\C=C(/C=C(C)/C=C/C=C/C=C(\\C)C(=O)[C@H]1C(=O)N[C@]2(O)CCO[C@H]12)C(=O)OC", "Aspergillus fumigatus", "< 4.15"]
]}

Input line: I have this molecule here, C\C=C(/C=C(C)/C=C/C=C/C=C(\C)C(O)[C@]12O[C@H]1[C@@](O)(CCO)NC2=O)C(=O)OC (stereo partly specified) , and I need its recorded pIC50.
Output line: < 4.15

Input line: Now the molecule C\C=C(/C=C(C)/C=C/C=C/C=C(\C)C(=O)C1C[C@@](O)(CCO)NC1=O)C(=O)OC (stereo partly specified)
Output line: < 4.15

Input line: Next molecule up: C\C=C(/C=C(C)/C=C/C=C/C=C(\C)C(=O)[C@]12O[C@H]1[C@@](O)(CCO)NC2=O)C(=O)OC
Output line: < 4.15

Input line: Would you mind doing C[C@@H]1[C@H](O)[C@@H](C)/C=C/C=C/C=C/C=C/C=C/C=C/C=C/[C@H](O[C@@H]2O[C@H](C)[C@@H](O)[C@H](N)[C@@H]2O)C[C@@H]2O[C@](O)(C[C@@H](O)C[C@@H](O)[C@H](O)CC[C@@H](O)C[C@@H](O)CC(=O)O[C@H]1C)C[C@H](O)[C@H]2C(=O)O [AMPHOTERICIN B] as well?
Output line: 6.68
